# System: Helicoverpa armigera
# Test method notes: Antifeedant activity against Helicoverpa armigera fed on compound-treated artificial diet assessed as growth inhibition at 50 to 100 ppm after 3 days relative to control
# Type: functional
Measure name: growth inhibition (GI)

>>> assay_value("C=C1[C@@H]([C@@]2(C)[C@@H](OC(C)=O)CC(=O)O[C@](C)(COC(C)=O)[C@@H]2CC(=O)OC)[C@@H](OC=O)[C@H](OC(=O)[C@H](O)[C@H](C)CC)[C@]2(C)[C@@H](c3ccoc3)C[C@H]3O[C@]132")
"60%"
>>> assay_value("C/C=C(\\C)C(=O)O[C@H]1C[C@@H](OC(C)=O)[C@@]2(C(=O)OC)CO[C@H]3[C@@H](O)[C@@](C)([C@]45O[C@@]4(C)[C@@H]4C[C@H]5O[C@@H]5OC=C[C@@]54O)[C@H]4[C@]1(CO[C@]4(O)C(=O)OC)[C@@H]32")
"≤ 75%"
>>> assay_value("C=C1[C@@H]([C@@]2(C)[C@@H](OC(C)=O)CC(=O)O[C@](C)(COC(C)=O)[C@@H]2C(=O)OC)[C@@H](OC=O)[C@H](OC(=O)[C@H](O)[C@H](C)CC)[C@@]2(C)[C@H](c3ccoc3)CC(=O)[C@]12O")
"60%"
>>> assay_value("C=C1[C@@H]([C@@]2(C)[C@@H](OC(C)=O)CC(=O)O[C@](C)(COC(C)=O)[C@@H]2CC(=O)OC)[C@@H](OC=O)[C@H](OC(=O)[C@H](OC(C)=O)[C@H](C)CC)[C@]2(C)[C@@H](c3ccoc3)C[C@H]3O[C@]132")
"60%"

====

# Tested on: Helicoverpa armigera
# Test method notes: Antifeedant activity against neonate larva of Helicoverpa armigera assessed as growth inhibition after 7 days by dietary assay
# Type: functional, organism-based
# Details: Helicoverpa armigera, feed or water, 168 h
Measure name: EC95 (µg/mL)

>>> assay_value("C=C1[C@@H]([C@@]2(C)[C@@H](OC(C)=O)CC(=O)O[C@](C)(COC(C)=O)[C@@H]2CC(=O)OC)[C@@H](OC=O)[C@H](OC(=O)[C@H](O)[C@H](C)CC)[C@]2(C)[C@@H](c3ccoc3)C[C@H]3O[C@]132")
30.6
>>> assay_value("C/C=C(\\C)C(=O)O[C@H]1C[C@@H](OC(C)=O)[C@@]2(C(=O)OC)CO[C@H]3[C@@H](O)[C@@](C)([C@]45O[C@@]4(C)[C@@H]4C[C@H]5O[C@@H]5OC=C[C@@]54O)[C@H]4[C@]1(CO[C@]4(O)C(=O)OC)[C@@H]32")
1.46
>>> assay_value("C=C1[C@@H]([C@@]2(C)[C@@H](OC(C)=O)CC(=O)O[C@](C)(COC(C)=O)[C@@H]2CC(=O)OC)[C@@H](OC=O)[C@H](OC(=O)[C@H](OC(C)=O)[C@H](C)CC)[C@]2(C)[C@@H](c3ccoc3)C[C@H]3O[C@]132")
30.8
>>> assay_value("C=C1[C@@H]([C@@]2(C)[C@@H](OC(C)=O)CC(=O)O[C@](C)(COC(C)=O)[C@@H]2C(=O)OC)[C@@H](OC=O)[C@H](OC(=O)[C@H](O)[C@H](C)CC)[C@@]2(C)[C@H](c3ccoc3)CC(=O)[C@]12O")
169
